Please provide measured GI50 for the entries that follow.
# Test system: MDA-MB-468
# Assay Comment: Anticancer activity against human MDA-MB-468 cells assessed as inhibition of cell growth incubated for 48 hrs by SRB assay
# Format: functional
Where a name gives a salt, the structure may show the parent alone.
Field format: number, assumed µM, no unit text.

For Cc1cc(C)n2ncc(C(=O)NCc3ccc(Cl)cc3)c2n1 the compound record lists GI50 as 58.5

According to the records, this compound Cc1cc(C)cc(O[C@H](C)C(=O)Nc2ccc(F)c([N+](=O)[O-])c2)c1 displays GI50 of 40.9

Looking up NC(=O)c1c(NC(=O)Cc2ccc(F)cc2)sc2c1CCCC2 , I found its GI50 recorded as 91

# compound COc1cccc2c1C(=O)c1c(O)c3c(c(O)c1C2=O)C[C@@](O)(C(=O)CO)C[C@@H]3O[C@H]1C[C@H](N)[C@H](O)[C@H](C)O1 [DOXORUBICIN HYDROCHLORIDE] ; its GI50 = 10.5

Lab note: measured GI50 of Cc1cc(C)n(C(=O)CNc2ccccc2Cl)n1 was 89.3

Recorded GI50 (compound Nc1cc(-c2cc3cc(F)ccc3[nH]2)ccc1F ): 36.5

Value of GI50 reported for the compound Cc1nn(C[C@@H](O)COc2ccc3c(C)cc(=O)oc3c2)c(C)c1C is 76.6
